Just for reference, patent US20260265233A1 is where these values come from.

# system name: human RXFP1 (Homo sapiens, UniProt Q9HBX9)
# Construct: expressed in transfected cells
# Sequence (Q9HBX9 whole entry): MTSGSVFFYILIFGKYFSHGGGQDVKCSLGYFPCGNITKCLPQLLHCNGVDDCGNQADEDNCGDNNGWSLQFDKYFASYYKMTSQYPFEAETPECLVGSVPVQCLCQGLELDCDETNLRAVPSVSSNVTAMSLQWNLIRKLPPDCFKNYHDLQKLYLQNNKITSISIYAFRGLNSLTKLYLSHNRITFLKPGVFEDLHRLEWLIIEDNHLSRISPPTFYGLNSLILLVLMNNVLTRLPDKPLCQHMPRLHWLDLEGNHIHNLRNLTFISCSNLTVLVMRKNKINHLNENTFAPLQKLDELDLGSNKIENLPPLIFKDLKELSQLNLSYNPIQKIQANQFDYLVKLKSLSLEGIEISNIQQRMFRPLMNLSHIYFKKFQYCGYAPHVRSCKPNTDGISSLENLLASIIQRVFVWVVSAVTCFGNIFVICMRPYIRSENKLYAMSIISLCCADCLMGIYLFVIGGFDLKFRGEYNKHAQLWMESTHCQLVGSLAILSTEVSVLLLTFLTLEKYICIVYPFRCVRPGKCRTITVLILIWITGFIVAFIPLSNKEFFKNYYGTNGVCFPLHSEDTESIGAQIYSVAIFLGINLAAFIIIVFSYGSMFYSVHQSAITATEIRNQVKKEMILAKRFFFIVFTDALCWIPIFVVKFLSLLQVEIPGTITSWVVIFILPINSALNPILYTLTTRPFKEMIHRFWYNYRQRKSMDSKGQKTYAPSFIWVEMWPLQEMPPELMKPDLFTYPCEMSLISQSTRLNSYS
# method: hRXFP1 HEK293 cAMP assay (HTRF)
# Assay type: cell-based
# experimental parameters: HEK293 cells stably expressing human RXFP1; 30 min at rt; intracellular cAMP by HTRF
Using EC50 as the sorting value, the categories are low = under 400 nM, medium = from 400 nM up to 1000 nM, high = 1000 nM and over

Lookup: Form: Item = COc1ccc(C2=NOC3CN(CC(C)(C)O)CC23)cc1C(=O)Nc1c(C(=O)Nc2ccc(F)c(C(F)(F)F)c2)sc2cc(C(F)(F)F)ccc12 (single isomer, unassigned) [Example 54] ; Class = ?
Found: low

Lookup: Each molecule maps to one class by EC50. Which class for `COc1ccc(C(=O)N2CC(O)C2)cc1C(=O)Nc1c(C(=O)Nc2ccc(F)c(C(F)(F)F)c2)sc2cc(C(F)(F)F)ccc12` ?
Found: low

Lookup: Class (by measured EC50) for COc1ccc(C2=NOC3CN(C(=O)OC(C)(C)C)CC23)cc1C(=O)Nc1c(C(=O)Nc2ccc(F)c(C(F)(F)F)c2)sc2cc(C(F)(F)F)ccc12 (single isomer, unassigned) [Example 244]
Found: low

Lookup: Which EC50 band matches COc1ccc(C2CCN(S(C)(=O)=O)C2)cc1C(=O)Nc1c(C(=O)Nc2ccc(F)c(C(F)(F)F)c2)sc2cc(C(F)(F)F)ccc12 (stereo not shown) ?
Found: high

Lookup: Which EC50 band matches COc1ccc(C2CCCN(CCS(C)(=O)=O)CC2)cc1C(=O)Nc1c(C(=O)Nc2ccc(F)c(C(F)(F)F)c2)sc2cc(C(F)(F)F)ccc12 (stereo not shown) [Example 74] ?
Found: high

Lookup: Record COc1ccc(C2=NOC3CC(NC(=O)CO)CC23)cc1C(=O)Nc1c(C(=O)Nc2ccc(F)c(C(F)(F)F)c2)sc2cc(C(F)(F)F)ccc12 (single isomer, unassigned) [Example 266] — which class?
Found: high

Lookup: Where would COc1ccc(C2CC2C(C)(C)O)cc1C(=O)Nc1c(C(=O)Nc2ccc(F)c(C(F)(F)F)c2)sc2cc(C(F)(F)F)ccc12 (stereo not shown) [Example 159] land among the classes by reported EC50?
Found: low

Lookup: GET /class?item= `COc1ccc(C2=NCC3(CCCCC3)O2)cc1C(=O)Nc1c(C(=O)Nc2ccc(F)c(C(F)(F)F)c2)sc2cc(C(F)(F)F)ccc12`
Found: medium

Lookup: Assign a bin to `COc1ccc(C2=NOC3(C2)CN(C(=O)CO)C3)cc1C(=O)Nc1c(C(=O)Nc2ccc(F)c(C(F)(F)F)c2)sc2cc(C(F)(F)F)ccc12`
Found: high

Lookup: Hi, small favor: classify `COc1ccc(-c2cc([C@@H](C)O)on2)cc1C(=O)Nc1c(C(=O)Nc2ccc(F)c(C(F)(F)F)c2)sc2cc(C(F)(F)F)ccc12` by its EC50 when you get a moment.
Found: medium

Lookup: Category lookup for the molecule `COc1ccc(-c2cc(C(=O)O)ccc2F)cc1C(=O)Nc1c(C(=O)Nc2ccc(F)c(C(F)(F)F)c2)sc2cc(C(F)(F)F)ccc12`
Found: low

Lookup: Which class holds COc1ccc(C2CCN(C(=O)C(C)(C)CO)C2)cc1C(=O)Nc1c(C(=O)Nc2ccc(F)c(C(F)(F)F)c2)sc2cc(C(F)(F)F)ccc12 (single isomer, unassigned) [Example 139] ?
Found: low

Lookup: Lab note: sort COc1ccc(C2=NOC3CN(C(=O)CO)CC23)cc1C(=O)Nc1c(C(=O)Nc2ccc(F)c(C(F)(F)F)c2)sc2cc(C(F)(F)F)ccc12 (single isomer, unassigned) [Example 243] into the matching EC50 band.
Found: high

Lookup: Could you tell me which band COc1ccc(C2CCCNCC2)cc1C(=O)Nc1c(C(=O)Nc2ccc(F)c(C(F)(F)F)c2)sc2cc(C(F)(F)F)ccc12 (stereo not shown) belongs to?
Found: high

Lookup: Classify this molecule: `COc1ccc(-c2cccc(CNS(C)(=O)=O)c2)cc1C(=O)Nc1c(C(=O)Nc2ccc(F)c(C(F)(F)F)c2)sc2cc(C(F)(F)F)ccc12`
Found: low

Lookup: For COc1ccc(C2CC2C(=O)N2CC(OC)C2)cc1C(=O)Nc1c(C(=O)Nc2ccc(F)c(C(F)(F)F)c2)sc2cc(C(F)(F)F)ccc12 (stereo not shown) [Example 163] , which EC50 bin applies?
Found: medium

Lookup: Exam item: assign COc1ccc(C2CCNC2)cc1C(=O)Nc1c(C(=O)Nc2ccc(F)c(C(F)(F)F)c2)sc2cc(C(F)(F)F)ccc12 (single isomer, unassigned) to the correct category.
Found: medium

Lookup: Class for COc1ccc(C2=NOC3(CCOC3=O)C2)cc1C(=O)Nc1c(C(=O)Nc2ccc(F)c(C(F)(F)F)c2)sc2cc(C(F)(F)F)ccc12 (stereo not shown) ?
Found: low

Lookup: Tag the class for COc1ccc(N2CCOC(CC(C)(C)O)C2)cc1C(=O)Nc1c(C(=O)Nc2ccc(F)c(C(F)(F)F)c2)sc2cc(C(F)(F)F)ccc12 (single isomer, unassigned) [Example 227]
Found: high

Lookup: Hi, small favor: classify `CCS(=O)(=O)Nc1cncc(-c2ccc(OC)c(C(=O)Nc3c(C(=O)Nc4ccc(F)c(C(F)(F)F)c4)sc4cc(C(F)(F)F)ccc34)c2)c1` by its EC50 when you get a moment.
Found: medium

Lookup: Band assignment needed for COc1ccc(C2CCCN(CC(C)C)C2)cc1C(=O)Nc1c(C(=O)Nc2ccc(F)c(C(F)(F)F)c2)sc2cc(C(F)(F)F)ccc12 (stereo not shown) please.
Found: high
